- tgt: T1, human CCR8 (Homo sapiens, UniProt P51685)
- T1 construct: expressed in transfected cells; host or cells: 293 cells
- protocol_notes: Neutralizing activity: inhibition of Ca2+ influx by 200 nM hCCL1 in human CCR8 expressing 293 cells (FLIPR), Test Example 6
- Assay type: cell-based
- cond: Table 9; WT IC50/mutant IC50; humanized 10A11 heavy chain CDR mutants, IGKV4-1/IGHV3-73
outcome_measure: IC50 ratio

INSERT INTO measurements (molecule, recorded_measurement) VALUES
  ('h10A11 (IGKV4-1/IGHV3-73 Y102F): humanized 10A11 heavy chain CDR point mutant (antibody, V domains shown) VL: DIVMTQSPDSLAVSLGERATINCRSSKSLLHSNGNTYLYWYQQKPGQPPKLLIYRMSNLASGVPDRFSGSGSGTDFTLTISSLQAEDVAVYYCMQHLEYPLTFGQGTKLEIKRT VH: EVQLVESGGGLVQPGGSLKLSCAASGFAFNTYALYWVRQASGKGLEWVGRIRSKSNNYATYYADSVKDRFTISRDDSKNTAYLQMNSLKTEDTAVYYCTRARFYYSDYGYAMDFWGQGTLVTVSS', 0.99),
  ('h10A11 (IGKV4-1/IGHV3-73 V63L): humanized 10A11 heavy chain CDR point mutant (antibody, V domains shown) VL: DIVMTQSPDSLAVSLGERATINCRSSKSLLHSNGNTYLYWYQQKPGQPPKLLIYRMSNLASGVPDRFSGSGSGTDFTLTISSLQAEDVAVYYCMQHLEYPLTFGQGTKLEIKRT VH: EVQLVESGGGLVQPGGSLKLSCAASGFAFNTYALYWVRQASGKGLEWVGRIRSKSNNYATYYADSLKDRFTISRDDSKNTAYLQMNSLKTEDTAVYYCTRARFYYSDYGYAMDYWGQGTLVTVSS', 0.56);
